The measurements presented in this section are drawn from PubChem BioAssay AID720648.

target: Disintegrin and metalloproteinase domain-containing protein 17 (Homo sapiens) (UniProt P78536); experiment: inhibition of ADAM17 peptide cleavage – biochemical, QFRET, primary screen (AID 720648); conditions: recombinant ADAM17, EDANS/DABCYL FRET peptide cleavage; at 6.95 µM
Sequence (P78536 215-824 limits assumed): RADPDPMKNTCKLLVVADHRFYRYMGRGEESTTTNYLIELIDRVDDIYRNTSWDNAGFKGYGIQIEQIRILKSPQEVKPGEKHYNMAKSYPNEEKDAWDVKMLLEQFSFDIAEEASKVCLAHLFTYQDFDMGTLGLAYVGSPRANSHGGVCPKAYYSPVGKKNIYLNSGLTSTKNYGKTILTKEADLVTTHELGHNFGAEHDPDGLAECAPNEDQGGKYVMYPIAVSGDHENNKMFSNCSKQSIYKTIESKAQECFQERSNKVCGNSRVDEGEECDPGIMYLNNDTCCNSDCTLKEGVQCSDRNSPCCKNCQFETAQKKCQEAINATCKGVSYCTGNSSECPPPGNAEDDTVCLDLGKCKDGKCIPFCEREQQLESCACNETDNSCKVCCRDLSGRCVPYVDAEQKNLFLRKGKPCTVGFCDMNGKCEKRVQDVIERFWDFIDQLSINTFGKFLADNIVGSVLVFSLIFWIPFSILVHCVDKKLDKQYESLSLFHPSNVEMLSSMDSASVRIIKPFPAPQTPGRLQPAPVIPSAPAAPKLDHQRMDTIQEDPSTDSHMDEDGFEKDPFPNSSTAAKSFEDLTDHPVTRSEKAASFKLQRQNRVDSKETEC
Out of some 370,000 compounds screened, about 3,100 (0.84%) were called active.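 How the source made its calls: active means inhibition above the mean of compounds lying between control limits plus 3 SD, set per campaign (cut at about 8.5% in these data); inactive means the rest.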 The sample holds actives, similar compounds and a random draw of the others, so the mix is not that of the screen.
Bench note: report the call from active, inactive

Cc1ccc(-c2nnc(SCC(=O)Nc3ccc(Oc4ccccc4)cc3)n2Cc2ccco2)cc1 : active

input: Look up the recorded call for O=C(C[C@H]1C(=O)N(c2ccc(F)c(F)c2)C[C@@H]1Cc1ccccc1)Nc1ccccc1 in this test.
output: active

input: I would be grateful if you could indicate the recorded call for CNC(=O)C[C@H]1C(=O)N(c2ccc(OC)cc2)C[C@@H]1Cc1ccccc1 .
output: inactive

input: Give the logged outcome of this assay for the following compound: N#Cc1ccccc1OC[C@@H](O)CN1CCC(C(O)(c2ccccc2)c2ccccc2)CC1
output: inactive

input: Which outcome was entered for the compound O=C(COC(=O)CCc1nc2ccccc2c(=O)[nH]1)Nc1ccc(N2CCOCC2)cc1 in this test?
output: inactive

input: So what was the verdict on O=C(CSc1nc2ccccc2n1Cc1ccccc1)NNC(=S)Nc1ccccc1 in this test?
output: inactive
